- Study system: human ether-à-go-go-related gene (hERG) potassium channel (human, UniProt Q12809)
- Sequence (Q12809 whole entry, looked up): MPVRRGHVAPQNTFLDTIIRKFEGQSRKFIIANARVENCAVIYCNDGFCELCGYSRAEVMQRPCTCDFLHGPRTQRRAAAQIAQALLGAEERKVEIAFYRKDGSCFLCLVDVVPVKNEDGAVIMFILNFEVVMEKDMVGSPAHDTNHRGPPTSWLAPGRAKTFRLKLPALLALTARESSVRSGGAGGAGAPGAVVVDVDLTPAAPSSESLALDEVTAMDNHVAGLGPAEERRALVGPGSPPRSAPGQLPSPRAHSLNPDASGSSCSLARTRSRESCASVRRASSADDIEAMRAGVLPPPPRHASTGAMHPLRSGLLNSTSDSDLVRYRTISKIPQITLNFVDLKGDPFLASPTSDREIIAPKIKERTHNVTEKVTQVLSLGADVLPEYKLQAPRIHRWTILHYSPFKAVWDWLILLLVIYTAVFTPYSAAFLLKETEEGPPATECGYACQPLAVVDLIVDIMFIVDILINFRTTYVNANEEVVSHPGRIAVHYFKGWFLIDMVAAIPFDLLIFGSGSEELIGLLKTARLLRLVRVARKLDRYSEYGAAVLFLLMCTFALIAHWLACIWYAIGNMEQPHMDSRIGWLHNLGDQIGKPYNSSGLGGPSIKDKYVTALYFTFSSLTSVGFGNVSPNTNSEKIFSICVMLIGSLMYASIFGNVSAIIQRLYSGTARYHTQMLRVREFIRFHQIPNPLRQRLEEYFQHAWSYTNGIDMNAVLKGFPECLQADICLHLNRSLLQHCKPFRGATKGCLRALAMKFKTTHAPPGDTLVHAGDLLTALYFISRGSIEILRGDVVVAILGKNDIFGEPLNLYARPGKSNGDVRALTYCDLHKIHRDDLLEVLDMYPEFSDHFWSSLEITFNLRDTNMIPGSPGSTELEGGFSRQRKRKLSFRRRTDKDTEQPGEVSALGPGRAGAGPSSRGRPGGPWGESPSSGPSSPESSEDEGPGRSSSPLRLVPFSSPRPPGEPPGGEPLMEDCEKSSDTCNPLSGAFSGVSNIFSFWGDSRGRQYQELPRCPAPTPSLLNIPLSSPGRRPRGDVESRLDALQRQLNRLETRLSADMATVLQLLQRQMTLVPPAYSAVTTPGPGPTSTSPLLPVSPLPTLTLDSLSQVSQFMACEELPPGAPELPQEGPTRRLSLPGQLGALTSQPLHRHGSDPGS
- Assay method text: primary screen, population patch clamp on CHO cells stably expressing hERG; higher = less effect of the substance
The campaign covered roughly 310,000 compounds. About 14,000 (4.5%) showed an effect of 50% or more. Effects have a minus sign here. Many of the other results were omitted from the sample, so strong results are more common in it than they were.
For each of the compounds below, state its hERG current change (%, negative = inhibition) at 10uM.
State just the number; it will be interpreted in %.

# input I have this compound here, Cc1ccc(-c2nc(=O)[nH]c3ccccc23)cc1 , and I need its recorded hERG current change (%, negative = inhibition) at 10uM.
# output -20

# input I have this compound here, CS(=O)(=O)c1ccc(C(=O)NCc2ccccc2F)cc1 , and I need its recorded hERG current change (%, negative = inhibition) at 10uM.
# output 6.24

# input I have this compound here, COc1ccc(C(=O)NC2CC2)cc1OC1CCN(Cc2ccc(Cl)cc2)CC1 , and I need its recorded hERG current change (%, negative = inhibition) at 10uM.
# output -78.8

# input I have this compound here, COCCCN(C(=O)CCOc1ccc(C(C)(C)C)cc1)c1c(N)n(Cc2ccccc2)c(=O)[nH]c1=O , and I need its recorded hERG current change (%, negative = inhibition) at 10uM.
# output -62.2

# input I have this compound here, O=C(CSc1nnnn1-c1ccc(O)cc1)Nc1ccc(N2CCOCC2)c(Cl)c1 , and I need its recorded hERG current change (%, negative = inhibition) at 10uM.
# output -1.58

# input I have this compound here, COCCCN(C(=O)CCOc1ccc(C)cc1)c1c(N)n(Cc2ccccc2)c(=O)[nH]c1=O , and I need its recorded hERG current change (%, negative = inhibition) at 10uM.
# output -20.2

# input I have this compound here, CCN(CC)/C(=N\S(=O)(=O)c1ccc(F)cc1)c1ccccc1 , and I need its recorded hERG current change (%, negative = inhibition) at 10uM.
# output 8.34

# input I have this compound here, COc1cc2[nH]c(=O)n(Cc3ccc(C(=O)NC4CCN(Cc5ccccc5)CC4)cc3)c(=O)c2cc1OC , and I need its recorded hERG current change (%, negative = inhibition) at 10uM.
# output 17.6

# input I have this compound here, CCCN(C(=O)CCOc1ccc(C(C)(C)C)cc1)c1c(N)n(Cc2ccccc2)c(=O)[nH]c1=O , and I need its recorded hERG current change (%, negative = inhibition) at 10uM.
# output 29.7

# input I have this compound here, COc1ccc(OC)c(N(CC(=O)N2CCC(C)CC2)S(=O)(=O)c2ccccc2)c1 , and I need its recorded hERG current change (%, negative = inhibition) at 10uM.
# output -22.2

# input I have this compound here, S=C(NCCN1CCOCC1)N1CCN(c2cccc(Cl)c2)CC1 , and I need its recorded hERG current change (%, negative = inhibition) at 10uM.
# output -16

# input I have this compound here, CCN(CC(=O)Nc1ccc(OC)cc1)CC(=O)Nc1cccc(C#N)c1 , and I need its recorded hERG current change (%, negative = inhibition) at 10uM.
# output 0.389

# input I have this compound here, O=C(CSc1oc(-c2ccco2)nc1S(=O)(=O)c1ccc(Cl)cc1)NCC1CCCO1 (stereo not shown) , and I need its recorded hERG current change (%, negative = inhibition) at 10uM.
# output -41.3

# input I have this compound here, COc1ccc(C(c2nnnn2Cc2ccccc2)N2CCN(c3nc4ccccc4s3)CC2)cc1 (stereo not shown) , and I need its recorded hERG current change (%, negative = inhibition) at 10uM.
# output 13.7

# input I have this compound here, COc1ccc(C(=O)NC2CC2)cc1OC1CCN(Cc2ccccc2)CC1 , and I need its recorded hERG current change (%, negative = inhibition) at 10uM.
# output -81.6

# input I have this compound here, CN(C)S(=O)(=O)c1ccc2c(c1)C(CC(=O)O)NC2=O (stereo not shown) , and I need its recorded hERG current change (%, negative = inhibition) at 10uM.
# output 6.72

# input I have this compound here, COc1ccc(C(=O)NC2CC2)cc1OC1CCN(Cc2ccc(F)c(F)c2)CC1 , and I need its recorded hERG current change (%, negative = inhibition) at 10uM.
# output -75.2

# input I have this compound here, COC(=O)c1cccnc1-n1c(=O)c2cccnc2n(Cc2ccc(Cl)cc2)c1=O , and I need its recorded hERG current change (%, negative = inhibition) at 10uM.
# output -26.6

# input I have this compound here, Cc1ccccc1OCCC(=O)N(Cc1ccccc1)c1c(N)n(Cc2ccccc2)c(=O)[nH]c1=O , and I need its recorded hERG current change (%, negative = inhibition) at 10uM.
# output -7.3

----------
- Study system: human ether-à-go-go-related gene (hERG) potassium channel (human, UniProt Q12809)
- Assay method text: primary screen, population patch clamp on CHO cells stably expressing hERG; higher = less effect of the substance
About 14,000 (4.5%) of roughly 310,000 compounds showed an effect of 50% or more. The effect is printed as a negative number. This excerpt belongs to a sample that is enriched for strong results.
Recorded endpoint: hERG current change (%, negative = inhibition) at 10uM (%)
State just the number; it will be interpreted in %.

# input I have this molecule here, COc1cc(Nc2cc(C)nc3ncnn23)cc(OC)c1 , and I need its recorded hERG current change (%, negative = inhibition) at 10uM.
# output -8.29

# input I have this molecule here, CCN1CCN(C(=O)CCc2nnc3ccc(N4CCN(c5cccc(OC)c5)CC4)nn23)CC1 , and I need its recorded hERG current change (%, negative = inhibition) at 10uM.
# output -5.55

# input I have this molecule here, COc1cccc(N2CCN(C(=O)CCc3nnc4ccc(N5CCCC5)nn34)CC2)c1 , and I need its recorded hERG current change (%, negative = inhibition) at 10uM.
# output -28.7

# input I have this molecule here, COc1ccc(N2CCN(C(=O)CC34CC5CC(CC(C5)C3)C4)CC2)c([N+](=O)[O-])c1 , and I need its recorded hERG current change (%, negative = inhibition) at 10uM.
# output 0.229

# input I have this molecule here, CCCCC(=O)N1CCN(c2ccc(OC)cc2[N+](=O)[O-])CC1 , and I need its recorded hERG current change (%, negative = inhibition) at 10uM.
# output -64.5

----------
- Study system: human ether-à-go-go-related gene (hERG) potassium channel (human)
- Assay method text: primary screen, population patch clamp on CHO cells stably expressing hERG; higher = less effect of the substance
- Experimental: Briefly, Chinese hamster ovary (CHO) cells stably expressing the hERG channel were dislodged from tissue culture flasks and dispensed into PPC plates. […] During the recording, background leak currents were estimated by a 100 ms step to -80 mV from an initial holding potential of -70 mV and subtracted from the subsequent current measurement. The campaign was conducted in two phases using slight differences in recording protocol. […]
The whole screen tested about 310,000 compounds, of which about 14,000 (4.5%) showed an effect of 50% or more. Effects have a minus sign here. This excerpt belongs to a sample that is enriched for strong results.
Recorded endpoint: hERG current change (%, negative = inhibition) at 10uM (%)
State just the number; it will be interpreted in %.

# input Lab request: please report hERG current change (%, negative = inhibition) at 10uM under test system human ether-à-go-go-related gene (hERG) potassium channel (human) for COc1cccc(CN(C)CC(O)COC(c2ccccc2)c2ccccc2C)c1 (stereo not shown)
# output -72.1

# input Lab request: please report hERG current change (%, negative = inhibition) at 10uM under test system human ether-à-go-go-related gene (hERG) potassium channel (human) for CCc1ccc(CN(C)CC(O)COc2cccc3ccccc23)cc1 (stereo not shown)
# output -25.2

# input Lab request: please report hERG current change (%, negative = inhibition) at 10uM under test system human ether-à-go-go-related gene (hERG) potassium channel (human) for CCn1c(SCC#N)nc2ccccc2c1=O
# output 2.7

# input Lab request: please report hERG current change (%, negative = inhibition) at 10uM under test system human ether-à-go-go-related gene (hERG) potassium channel (human) for O=C(NCCc1ccccn1)C1CCCN(S(=O)(=O)Cc2ccccc2)C1 (stereo not shown)
# output 9.26

# input Lab request: please report hERG current change (%, negative = inhibition) at 10uM under test system human ether-à-go-go-related gene (hERG) potassium channel (human) for COc1ccc(N(C(=O)c2cccnc2)S(=O)(=O)c2cc(OC)ccc2OC)cc1
# output -21.8

# input Lab request: please report hERG current change (%, negative = inhibition) at 10uM under test system human ether-à-go-go-related gene (hERG) potassium channel (human) for CCc1ccccc1NC(=S)N(CCN(C)C)C(C)c1ccccn1 (stereo not shown)
# output -30.8

# input Lab request: please report hERG current change (%, negative = inhibition) at 10uM under test system human ether-à-go-go-related gene (hERG) potassium channel (human) for COc1ccc(CN(C)CC(O)COC(c2ccc(OC)cc2)c2ccc(OC)cc2)cc1 (stereo not shown);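 also: peak tail current of the secondary pulse compared with the same well before compound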
# output -77.2

# input Lab request: please report hERG current change (%, negative = inhibition) at 10uM under test system human ether-à-go-go-related gene (hERG) potassium channel (human) for CCc1ccccc1NC(=O)CCC(=O)N1CCSc2ccccc21;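 also: peak tail current of the secondary pulse compared with the same well before compound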
# output -14.7

# input Lab request: please report hERG current change (%, negative = inhibition) at 10uM under test system human ether-à-go-go-related gene (hERG) potassium channel (human) for NCCSc1c(-c2ccc(Cl)cc2)[nH]c2ccccc12;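 also: peak tail current of the secondary pulse compared with the same well before compound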
# output -84.3

# input Lab request: please report hERG current change (%, negative = inhibition) at 10uM under test system human ether-à-go-go-related gene (hERG) potassium channel (human) for CCc1ccc(CNCc2ccc(OCC(O)CN(C)Cc3ccccc3)cc2)nc1 (stereo not shown);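 also: peak tail current of the secondary pulse compared with the same well before compound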
# output -17.4

Reference for the values: paper PMC4336329
